Target: Yer184c (UniProt P39961)
Sequence: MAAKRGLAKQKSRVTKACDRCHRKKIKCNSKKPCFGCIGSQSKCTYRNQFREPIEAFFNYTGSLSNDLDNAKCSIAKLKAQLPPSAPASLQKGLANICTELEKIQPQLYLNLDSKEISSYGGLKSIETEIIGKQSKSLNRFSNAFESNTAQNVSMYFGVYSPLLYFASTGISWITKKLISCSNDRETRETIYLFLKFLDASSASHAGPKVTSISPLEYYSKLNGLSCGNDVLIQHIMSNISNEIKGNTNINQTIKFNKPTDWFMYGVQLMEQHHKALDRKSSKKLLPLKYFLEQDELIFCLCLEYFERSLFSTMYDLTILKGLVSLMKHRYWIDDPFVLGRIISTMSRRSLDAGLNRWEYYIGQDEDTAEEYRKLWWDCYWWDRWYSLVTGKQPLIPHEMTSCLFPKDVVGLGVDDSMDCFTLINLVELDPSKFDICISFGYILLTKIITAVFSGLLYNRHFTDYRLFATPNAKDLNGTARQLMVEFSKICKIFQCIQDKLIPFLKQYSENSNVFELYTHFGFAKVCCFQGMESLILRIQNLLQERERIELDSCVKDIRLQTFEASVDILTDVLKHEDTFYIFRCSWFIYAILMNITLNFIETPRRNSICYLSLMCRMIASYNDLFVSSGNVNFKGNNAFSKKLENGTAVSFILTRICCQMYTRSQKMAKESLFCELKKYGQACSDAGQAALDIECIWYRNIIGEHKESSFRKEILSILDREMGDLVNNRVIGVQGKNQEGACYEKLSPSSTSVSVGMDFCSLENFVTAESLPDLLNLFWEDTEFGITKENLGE
Test: PBM E-score (8-mer binding enrichment) (E-score (-0.5 to 0.5)); higher = stronger / more preferred TF binding
Conditions: protein concentration: 100 nM; construct: GST-full length
Over roughly 33,000 sequences, “E-score (-0.5 to 0.5)” has its median near -0.016; the highest 2% begin near 0.3. Many of the other results were omitted from the sample, so the highest values are more common in it than they were.
Quick rule: PBM E-score of at least -0.1 means t, below that means f.

{"columns": ["RESIDUES", "QUALITATIVE LABEL"],
 "data": [
  ["TAGATGGA", "f"],
  ["CAAATACG", "t"],
  ["CGTTACCC", "f"],
  ["CACTCGGG", "t"],
  ["CAGCTACC", "f"],
  ["AGATGGGA", "f"],
  ["CAACAGCG", "f"],
  ["GGAGTAAA", "t"],
  ["ACTATCGA", "f"],
  ["ACCTCGGC", "t"]
]}

Problem: Determine whether this sequence has PBM E-score no lower than -0.1: CCGGCAAG
Solution: t
